Kindly state T/C for each of the entries shown.
System: P388 leukemia ip, CD2F1 mice, survival T/C
assay_explanation: NCI In Vivo Anticancer Drug Screen. Data for tumor model P388 Leukemia (intraperitoneal) in CD2F1 (CDF1) mice
condition: endpoint: median survival time; dose: 200.0 mg/kg/injection; schedule: Q01DX005 (ip); vehicle: Klucel (hydroxypropylcellulose) (HPC); higher = longer survival
Protocol: The antitumor activity of compounds was measured in mice bearing transplantable tumors. Survival or tumor size were measured and the results are expressed as the measurement made in the treated group (T) divided by the measurement made in the vehicle treated control group (C). The tumor model used in this assay is P388 Leukemia (intraperitoneal) in CD2F1 (CDF1) mice
Inconclusive results and toxic doses are left out. Bridge positions count the residues as written; N and C are the ends. Peptide text beside a SMILES is read from it. I, II: the chains in the order shown.

Input line: Request: T/C, test system P388 leukemia ip, CD2F1 mice, survival T/C, entry OC1C=CC2C(CC1)C1(c3ccccc3)OC2(c2ccccc2)c2ccccc21 (centres undefined)
Output line: 99 % of control

Input line: // lookup T/C | system=P388 leukemia ip, CD2F1 mice, survival T/C | key= COC(=O)NC1=CCC(C(C)(C)C)CC1 (centres undefined)
Output line: 103 % of control

Input line: Lookup: T/C / P388 leukemia ip, CD2F1 mice, survival T/C / O=C(O)c1cccc2c1C(=O)c1ccccc1-2
Output line: 105 % of control

Input line: Form field: T/C recorded for Cc1cc(C)c(C#N)c(SC(C(=O)Nc2cc(C(F)(F)F)ccc2Cl)c2ccccc2)n1 (centres undefined) with P388 leukemia ip, CD2F1 mice, survival T/C (enter value)
Output line: 105 % of control

Input line: For the record COc1ccccc1-n1c(Cc2cccc3ccccc23)n[nH]c1=S , what value of T/C is listed for P388 leukemia ip, CD2F1 mice, survival T/C?
Output line: 99 % of control

Input line: Query the reported T/C for P388 leukemia ip, CD2F1 mice, survival T/C; item: Cc1nc2c(cnn2C)c(=O)n1C(C)C
Output line: 111 % of control

Input line: # query: T/C | item CN(C)C1=CC(=O)NC2CCCCC12 (centres undefined) | system: P388 leukemia ip, CD2F1 mice, survival T/C
Output line: 105 % of control

Input line: Can you look up T/C on P388 leukemia ip, CD2F1 mice, survival T/C for Cc1nnc2c3[nH]c4ccccc4c3c(Cl)nn12 ?
Output line: 98 % of control

Input line: Under P388 leukemia ip, CD2F1 mice, survival T/C: T/C value of COC1(OC)C(=S)N(C2CCCCC2)C(=S)N1C1CCCCC1 ?
Output line: 96 % of control

Input line: Query the reported T/C for P388 leukemia ip, CD2F1 mice, survival T/C; item: Cc1ccc(S(=O)(=O)NC(=O)c2cnc(N(C)C)s2)cc1
Output line: 107 % of control

Input line: Value wanted: T/C (P388 leukemia ip, CD2F1 mice, survival T/C) of entry COc1cc2cccc(OC)c(=O)c2c(OC)c1OC
Output line: 90 % of control

Input line: Checklist item: T/C tested on P388 leukemia ip, CD2F1 mice, survival T/C, entry c1ccc(C2NCCS2)cc1 (centres undefined) , value?
Output line: 104 % of control

Input line: P388 leukemia ip, CD2F1 mice, survival T/C / T/C / O=[N+]([O-])c1cc2c(ccc3occc32)o1 : value?
Output line: 98 % of control

Input line: Fill in the recorded T/C for this compound, with P388 leukemia ip, CD2F1 mice, survival T/C as test system: O=C1c2ccccc2-c2ccc(NC(=O)C34CC5CC(CC(C5)C3)C4)cc21
Output line: 90 % of control

Input line: Tell me reported T/C for CC(NC(=O)C(N)CSSCC(N)C(=O)NC(C)C(=O)O)C(=O)O (stereo not drawn) (I: H-Cys-Ala-OH / II: H-Cys-Ala-OH; disulfide I:1-II:1; configuration not given here) , tested with P388 leukemia ip, CD2F1 mice, survival T/C.
Output line: 110 % of control

Input line: Record COc1ccc(CCN=C(C)c2cc(Cl)cc(Cl)c2O)cc1OC : what is its T/C with P388 leukemia ip, CD2F1 mice, survival T/C?
Output line: 95 % of control

Input line: Under P388 leukemia ip, CD2F1 mice, survival T/C: T/C value of OCC(O)CNc1ncnc2cc(Cl)ccc12 (centres undefined) ?
Output line: 105 % of control

Input line: Entry COc1cc(N)c(S(=O)(=O)O)cc1N=N/C(=N/Nc1cc(S(=O)(=O)O)c(N)cc1OC)C(=O)Nc1ccccc1 , system P388 leukemia ip, CD2F1 mice, survival T/C: what T/C was measured?
Output line: 109 % of control

Input line: Form: Entry = OCC1=C(CO)CC2=C(CC=CC2)C1 | System = P388 leukemia ip, CD2F1 mice, survival T/C | T/C = ____
Output line: 97 % of control

Input line: Lookup: T/C / P388 leukemia ip, CD2F1 mice, survival T/C / COc1ccc(Cc2cc3c(cc2OCC(=O)N2CCOCC2)OCO3)cc1
Output line: 97 % of control

Input line: Give recorded T/C with P388 leukemia ip, CD2F1 mice, survival T/C for the following compound: N#Cc1c(-c2ccccc2)c(C#N)c(=O)n(N)c1N
Output line: 86 % of control

Input line: Requested read-out T/C, target or system P388 leukemia ip, CD2F1 mice, survival T/C, entry Cc1cc2nnn(C3OC(CO)C(O)C3O)c2cc1C (centres undefined)
Output line: 104 % of control

Input line: What measured T/C is associated with [N-]=[N+]=NC1(N=[N+]=[N-])C(=O)c2cccc3c2N(CCC3)C1=O (centres undefined) on P388 leukemia ip, CD2F1 mice, survival T/C?
Output line: 88 % of control

Input line: I'm curious: which T/C was measured for Nc1nsc2nc3ccccc3cc12 tested on P388 leukemia ip, CD2F1 mice, survival T/C?
Output line: 102 % of control
